# assayedTarget: T1, PUF4 RNA-binding domain (Saccharomyces cerevisiae, UniProt P25339 537-888)
# T1 sequence: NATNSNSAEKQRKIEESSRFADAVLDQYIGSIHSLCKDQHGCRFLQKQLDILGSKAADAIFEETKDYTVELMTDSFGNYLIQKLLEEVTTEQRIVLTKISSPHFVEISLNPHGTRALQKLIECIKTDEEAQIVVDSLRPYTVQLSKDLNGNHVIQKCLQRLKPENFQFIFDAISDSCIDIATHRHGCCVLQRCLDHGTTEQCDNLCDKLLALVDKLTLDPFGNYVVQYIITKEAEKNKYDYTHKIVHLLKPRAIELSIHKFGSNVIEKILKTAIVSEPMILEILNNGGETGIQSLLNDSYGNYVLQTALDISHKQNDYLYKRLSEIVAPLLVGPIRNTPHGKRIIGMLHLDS
# experimentDescription: Mg; RNA-MaP; 20 mM Na-HEPES pH 7.4, 30 mM KOAc, 0.75 mM MgCl2, 0.1% Tween-20, 5% glycerol, 0.1 mg/mL BSA, 2 mM DTT; 25 C; 0.0125-409.6 nM protein
# conditionNotes: tags: N-His6-TEV cleaved; C-SNAP kept, Cy3B-labelled; label: tethered on chip by stalled RNA polymerase
// reported pKd for each item listed
Recall that pKd is obtained by taking minus log10 of the concentration measured in molar.

Completed entries (count: 5):
>  <binder>
Ic_S2_P3E.1_K3.1_C3.1_H3.1_A3.1_[T5C]_[A6C]_F3.1_[T7G]_[A8T]_T3.1 (ssRNA) RNA: UUUGAUUAAUAUGAUAUCGUUCUUUCUUGUACCGUUUCUUUCUCGAUAUCAUAUUAAUCUUU

>  <pKd>
7.25

$$$$
>  <binder>
UCUCUUUGUAAAACCGUCUCUU (ssRNA) [Ic_S1_P5E.1_K5.1_C5.1_H5.1_A5.1_[T5A]_[T6A]_F5.1_[T8C]_[T9C]_[A10G]_T5.1]

>  <pKd>
5.92

$$$$
>  <binder>
UCUCUUUGUAUAUUAUUUCUCUU (ssRNA) [Ie_S1_P4E.1_K4.1_C4.1_H4.1_A4.1_F4.1_[+9TT]_T4.1]

>  <pKd>
9.26

$$$$
>  <binder>
Ic_S2_P5E.1_K5.1_C5.1_H5.1_A5.1_[T5G]_F5.1_[T8A]_[A10T]_T5.1 (ssRNA) RNA: UUUGAUUAAUAUGAUAUCGUUCUUUCUUGUAGUAAUUUUCUUUCUCGAUAUCAUAUUAAUCUUU

>  <pKd>
6.47

$$$$
>  <binder>
Ic_S2_P5E.1_K5.1_C5.1_H5.1_A5.1_[T6C]_[A7G]_F5.1_[T8C]_[T9C]_[A10G]_T5.1 (ssRNA) RNA: UUUGAUUAAUAUGAUAUCGUUCUUUCUUGUAUCGCCGUUCUUUCUCGAUAUCAUAUUAAUCUUU

>  <pKd>
5.82

$$$$

Could you share which pKd value was measured for Id_iii_S2_P3E.5_K3.1_C3.3_H3.1_A3.1_F3.1_T3.2_[A10G] (ssRNA) RNA: UUUGAUUAAUAUGAUAUCGUUCUUUCUUCUUGUAUAUAUGUUCUUUCUCGAUAUCAUAUUAAUCUUU ?
8.65

Would you mind doing UCUCUUUAUACACUUAUUAUAUCUCUU (ssRNA) [Id_iii_S1_P5E.7_K5.3_C5.3_[C-2A]_H5.3_A5.1_F5.1_T5.2] as well?
6.14

Would you mind doing UCUCUUUGUAUUAUUCAUCUCUU (ssRNA) [Ie_S1_P5E.1_K5.1_C5.1_H5.1_A5.1_F5.1_[+9C]_T5.1] as well?
7.60

Would you mind doing Ic_S4_P4E.1_K4.1_C4.1_H4.1_A4.1_[T5C]_[T7G]_F4.1_[T8C]_T4.1 (ssRNA) RNA: UUUGACAACUGAUCGUUCUUUCUUGUACAGCAUUCUUUCUCGAUCAGUUGUCUUU as well?
7.16

Would you mind doing Id_ii_S2_P5E.3_K5.2_C5.2_[C-2T]_[T-1A]_H5.2_A5.1_F5.1_T5.2_[A12T] (ssRNA) RNA: UUUGAUUAAUAUGAUAUCGUUCUUUCUUAUAUAUUAUUAUUUUCUUUCUCGAUAUCAUAUUAAUCUUU as well?
7.72

Would you mind doing Ic_S2_P4E.1_K4.1_C4.1_H4.1_A4.1_[T5A]_[A6T]_[T7G]_F4.1_[T8C]_[A9C]_T4.1 (ssRNA) RNA: UUUGAUUAAUAUGAUAUCGUUCUUUCUUGUAAUGCCUUCUUUCUCGAUAUCAUAUUAAUCUUU as well?
5.98

Would you mind doing Ic_S2_P5E.1_K5.1_C5.1_H5.1_A5.1_[T5C]_[T6C]_F5.1_[T8G]_[T9C]_[A10T]_T5.1 (ssRNA) RNA: UUUGAUUAAUAUGAUAUCGUUCUUUCUUGUACCAGCUUUCUUUCUCGAUAUCAUAUUAAUCUUU as well?
6.30

Would you mind doing UCUCUUUGUACCGCUCUCUU (ssRNA) [Ic_S1_P3E.1_K3.1_C3.1_H3.1_A3.1_[T5C]_[A6C]_F3.1_[T7G]_[A8C]_T3.1] as well?
6.00
